For each entry below, report its IC50 value.
target: rat TRPV2 (Rattus norvegicus, UniProt Q9WUD2); construct: expressed in transfected cells; assay: Thermo-TRP assay: [Ca2+]i elevation (Fluo-4) in HEK-293 cells transfected with TRPV2; type: cell-based; details: vs CBD 2 μM
Sequence (Q9WUD2 whole entry): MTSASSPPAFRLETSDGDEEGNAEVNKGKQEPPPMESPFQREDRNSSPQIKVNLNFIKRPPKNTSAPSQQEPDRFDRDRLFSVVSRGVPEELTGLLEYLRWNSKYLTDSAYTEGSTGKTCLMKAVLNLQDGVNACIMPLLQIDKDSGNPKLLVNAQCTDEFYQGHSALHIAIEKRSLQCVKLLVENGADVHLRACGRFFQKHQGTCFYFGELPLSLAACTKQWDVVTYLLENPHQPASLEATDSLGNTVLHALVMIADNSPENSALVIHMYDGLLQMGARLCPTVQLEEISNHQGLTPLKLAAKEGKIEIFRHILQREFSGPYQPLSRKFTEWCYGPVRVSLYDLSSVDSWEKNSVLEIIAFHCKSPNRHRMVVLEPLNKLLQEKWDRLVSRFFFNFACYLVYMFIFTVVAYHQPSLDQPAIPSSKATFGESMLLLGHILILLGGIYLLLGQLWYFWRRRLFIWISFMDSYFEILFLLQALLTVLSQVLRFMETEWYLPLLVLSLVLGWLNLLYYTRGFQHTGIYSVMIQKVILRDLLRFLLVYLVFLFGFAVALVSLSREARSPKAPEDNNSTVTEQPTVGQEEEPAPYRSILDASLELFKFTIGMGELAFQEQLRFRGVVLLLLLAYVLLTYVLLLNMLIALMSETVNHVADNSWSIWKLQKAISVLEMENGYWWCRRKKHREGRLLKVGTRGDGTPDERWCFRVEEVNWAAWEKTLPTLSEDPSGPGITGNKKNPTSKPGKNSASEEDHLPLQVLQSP
Report as a plain number; the unit µM is understood.

Note IC50 for the compound shown: `CCCCCCC(C)(C)C1=CC2=C(C(=O)C1=O)c1cc(C)ccc1C(C)(C)O2` 5.2

Note IC50 for the compound shown: CCCCCCC(C)(C)C1=CC(=O)C2=C(OC(C)(CCC=C(C)C)C=C2)C1=O (centres unmarked) 6.9

Note IC50 for the compound shown: `CCCCCCC(C)(C)C1=CC(=O)C(C/C=C(\C)CCC=C(C)C)=C(O)C1=O` 23.7

Note IC50 for the compound shown: `C=C(C)[C@@H]1CCC(C)=C[C@H]1C1=C(O)C(=O)C(C(C)(C)CCCCCC)=CC1=O` 5.45

Note IC50 for the compound shown: `CCCCCCC(C)(C)C1=CC2=C(C(=O)C1=O)[C@@H]1CC(C)=CC[C@H]1C(C)(C)O2` 8.5
